Below, each of the molecules is paired with its reported % Remaining at 6 hr value.
TEST: Protein binding in mouse brain homogenates
Assay type: in vitro ADME
CONDITION_PARAMETERS: 6 hr

| MOLECULE | % Remaining at 6 hr, % |
| --- | --- |
| Cn1c2c(c3ccc(Cl)c(F)c31)CN(C(=O)CO)CC2 [TDI-6570, reference compound] | 94.51 |
| Cn1cc(-c2cc(Cl)c(Cl)c3sc4c(c23)CCN(C(=O)CN)C4)cn1 | 98.24 |
| O=C(CO)N1CCc2c(sc3c(Cl)c(Cl)cc(-c4cn[nH]c4)c23)C1 | 108.27 |
| Cn1cc(-c2cc(Cl)c(Cl)c3nc4c(n23)CN(C(=O)CO)CC4)cn1 | 99.35 |
| Cn1cc(-c2cc(Cl)c(Cl)c3sc4c(c23)CN(C(=O)CO)CC4)cn1 | 92.46 |
| Cn1cc(-c2cc(Cl)c(Cl)c3oc4c(c23)CN(C(=O)CN)CC4)cn1 | 90.87 |
| CCCc1nc2c(C)cc(-c3nc4ccccc4n3C)cc2n1Cc1ccc(-c2ccccc2C(=O)O)cc1 [Telmisartan, reference compound] | 103.38 |

Data provenance is patent US20250163052A1.
